Below, each of the compounds is paired with its reported DiscoveRx β-arrestin2 Ymax (%) value.
- Target under test: AGTR1 (Homo sapiens, UniProt P30556)
- Construct: host or cells: Pathunter CHO-K1 AGTR1 β-arrestin cell line (CHO-K1)
- Test method notes: DiscoveRx β-arrestin2 recruitment assay (enzyme complementation, Pathunter CHO-K1 AGTR1 β-arrestin cell line)
- Assay type: cell-based
- Experimental setup: DiscoveRx β-arrestin2 recruitment
Recorded metric: DiscoveRx β-arrestin2 Ymax (%)

1) CCCCC(=O)N(Cc1ccc(-c2cc(-c3cccc(OC)n3)ccc2-c2nn[nH]n2)cc1)[C@H](C(=O)O)C(C)C : 29.8%
2) CCCCC1=NC2(CCCC2)C(=O)N1Cc1ccc(-c2cc(-c3ccccc3)ccc2-c2nn[nH]n2)cn1 : 36.1%
3) CCCCC(=O)N(Cc1ccc(-c2cc(-c3cccnc3OC)ccc2-c2nn[nH]n2)cc1)[C@H](C(=O)O)C(C)C : 26.4%
4) CCCCC(=O)N(Cc1ccc(-c2cc(Oc3ccccc3)ccc2-c2nn[nH]n2)cc1)[C@H](C(=O)O)C(C)C : 19.1%
5) CCCCC(=O)N(Cc1ccc(-c2cc(-c3cccc(C)n3)ccc2-c2nn[nH]n2)cc1)[C@H](C(=O)O)C(C)C : 36.3%
6) CCCCC(=O)N(Cc1ccc(-c2cc(-c3cnn(C)c3)ccc2-c2nn[nH]n2)cc1)[C@H](C(=O)O)C(C)C : 10.9%
7) CCCCC1=NC2(CCCC2)C(=O)N1Cc1ccc(-c2cc(Oc3ccccc3)ccc2-c2nnn[nH]2)cc1 : 11.2%

---

- Target under test: hAT1R (Homo sapiens)
- Sequence (P30556 1-359): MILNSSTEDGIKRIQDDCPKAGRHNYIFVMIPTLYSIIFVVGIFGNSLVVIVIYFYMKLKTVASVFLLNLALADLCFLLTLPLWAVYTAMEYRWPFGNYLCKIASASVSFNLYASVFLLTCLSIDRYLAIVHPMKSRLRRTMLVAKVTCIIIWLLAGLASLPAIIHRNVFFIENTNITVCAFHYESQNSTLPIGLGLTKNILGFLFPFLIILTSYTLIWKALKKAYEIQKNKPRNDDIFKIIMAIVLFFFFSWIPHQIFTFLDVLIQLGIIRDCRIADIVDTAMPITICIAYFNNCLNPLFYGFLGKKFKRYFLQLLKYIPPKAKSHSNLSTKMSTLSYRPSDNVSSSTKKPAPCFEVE
- Test method notes: cell-based
- Experimental setup: Low AT1R Expression; read-out: BRET β-Arrestin2 Low AT1R Expression EC50
pEC50: −log10 of the molar value.
Below, each of the compounds is paired with its reported pEC50 value.
Recorded metric: pEC50

1) CCCCC1=NC2(CCOC2)C(=O)N1Cc1ccc(-c2cc(-c3ccccc3O)ccc2-c2nnn[nH]2)cc1 (single isomer, unassigned) [Example 150] : 7.11
2) CCc1nc2c(C)cc(C)nc2n1Cc1ccc(-c2cc(-c3cccc(OC)c3)ccc2-c2nn[nH]n2)cc1 : 7.91
3) CCc1nc2c(C)cc(C)nc2n1Cc1ccc(-c2cc(N3CCC4(CCOC4)C3)ccc2-c2nn[nH]n2)cc1 (stereo not drawn) : 6.51
4) CCc1nc2c(C)cc(C)nc2n1Cc1ccc(-c2cc(-c3ccsn3)ccc2-c2nn[nH]n2)cc1 : 7.70
5) CCc1nc2c(C)cc(C)nc2n1Cc1ccc(-c2cc(-c3ccc(F)cn3)ccc2-c2nn[nH]n2)cc1 : 7.63
6) CCCCC1=NC2(CCCC2)C(=O)N1Cc1ccc(-c2cc(-c3cc(C)ccn3)ccc2-c2nn[nH]n2)cc1 : 7.38
7) CCc1nc2c(C)cc(C)nc2n1Cc1ccc(-c2cc(-c3cc(C)ccn3)ccc2-c2nn[nH]n2)cc1 : 8.51
8) CCCCC1=NC2(CCCC2)C(=O)N1Cc1ccc(-c2cc(-c3cc(OC)ccn3)ccc2-c2nn[nH]n2)cc1 : 7.39
9) CCc1nc2c(C)cc(C)nc2n1Cc1ccc(-c2cc(-c3ccccc3)ccc2-c2noc(=S)[nH]2)cc1 : 7.24
10) CCc1nc2c(C)cc(C)nc2n1Cc1ccc(-c2cc(-c3ccc(CO)cc3)ccc2-c2nn[nH]n2)cc1 : 7.58
11) CCc1nc2c(C)cc(C)nc2n1Cc1ccc(-c2cc(-c3ncc(C)s3)ccc2-c2nn[nH]n2)cc1 : 7.82
12) CCc1nc2c(C)cc(C)nc2n1Cc1ccc(-c2cc(-c3cccc(C)c3)ccc2-c2nn[nH]n2)cc1 : 8.27
13) CCc1nc2c(C)cc(C)nc2n1Cc1ccc(-c2cc(C3CCCCCC3)ccc2-c2nn[nH]n2)cc1 : 7.42
14) CCc1nc2c(C)cc(C)nc2n1Cc1ccc(-c2cc(-c3cccc(OC)n3)ccc2-c2nn[nH]n2)cc1 : 7.72
15) CCc1nc2c(C)cc(C)nc2n1Cc1ccc(-c2cc(-c3ccccc3)ccc2-c2nn[nH]n2)cc1 : 8.09
